Would you mind telling me the reported pIC50 of each entry?
target: muscarinic receptors (cerebral cortex); assay: Binding to muscarinic receptors, 3H-N-methylscopolamine displacement, cerebral cortex; conditions: rat cerebral cortex homogenate 1:3000, 0.3 n molar 3H-NMS, pH 7.4, 30° C., 45 minutes; read-out: Receptor binding tests IC50 Cortex
Give bare numbers, as −log10 of the molar value.

The examples below pair each entry with its known result.
Problem: Which measured pIC50 value corresponds to CN1CCN(NC(=O)N2c3ccccc3NC(=O)c3cscc32)CC1 [C] ?
Result: 7.70

Problem: Which measured pIC50 value corresponds to CN1CCC(NC(=O)N2c3ccccc3NC(=O)c3cscc32)CC1 [B] ?
Result: 7.52

Then there is this molecule:
Problem: Which measured pIC50 value corresponds to CN1CCC(OC(=O)N2c3ccccc3NC(=O)c3cscc32)CC1 [A] ?
Result: 7.40

###

assay: Mydriasis: effect on pupil size in rats; conditions: in vivo, iv, rat, pupil size observed for 10 minutes
readout_label: ED50 at 10 min (mg/kg)
One number for each entry, in mg/kg.

The examples below pair each entry with its known result.
Problem: Which measured ED50 at 10 min value corresponds to CN1CCC(NC(=O)N2c3ccccc3NC(=O)c3cscc32)CC1 ?
Result: 0.037

Problem: Which measured ED50 at 10 min value corresponds to CN1CCC(OC(=O)N2c3ccccc3NC(=O)c3cscc32)CC1 ?
Result: 0.11

Then there is this molecule:
Problem: Which measured ED50 at 10 min value corresponds to CN1CCN(NC(=O)N2c3ccccc3NC(=O)c3cscc32)CC1 ?
Result: 0.03

###

molecular target: muscarinic receptors (heart) (Rattus norvegicus); construct: All the organs were then homogenized in a Potter apparatus; experiment: Binding to muscarinic receptors, 3H-N-methylscopolamine displacement, whole heart; details: rat whole heart homogenate 1:250, 0.3 n molar 3H-NMS, pH 7.4, 30° C., 45 minutes; read-out: Receptor binding tests IC50 Heart
Sequence (P10980 whole entry): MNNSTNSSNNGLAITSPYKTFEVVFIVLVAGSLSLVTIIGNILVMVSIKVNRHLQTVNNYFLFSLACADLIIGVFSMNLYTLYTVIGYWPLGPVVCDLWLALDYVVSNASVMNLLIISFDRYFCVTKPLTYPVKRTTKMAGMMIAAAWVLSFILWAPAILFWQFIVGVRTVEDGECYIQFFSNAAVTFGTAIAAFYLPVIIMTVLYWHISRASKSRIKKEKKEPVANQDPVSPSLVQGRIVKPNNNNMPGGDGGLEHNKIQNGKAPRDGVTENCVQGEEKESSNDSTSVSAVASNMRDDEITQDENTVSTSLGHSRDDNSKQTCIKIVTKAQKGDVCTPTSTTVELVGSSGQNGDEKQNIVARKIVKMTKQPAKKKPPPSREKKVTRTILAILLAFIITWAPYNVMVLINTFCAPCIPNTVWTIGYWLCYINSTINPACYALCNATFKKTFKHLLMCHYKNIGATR
readout_label: IC50 (nM)
One number for each entry, in nM.

The examples below pair each entry with its known result.
Problem: Please provide the recorded IC50 for CN1CCC(NC(=O)N2c3ccccc3NC(=O)c3cscc32)CC1 [B] , tested on muscarinic receptors (heart) (Rattus norvegicus).
Result: 220

Problem: Please provide the recorded IC50 for CN1CCC(OC(=O)N2c3ccccc3NC(=O)c3cscc32)CC1 [A] , tested on muscarinic receptors (heart) (Rattus norvegicus).
Result: 180

Then there is this compound:
Problem: Please provide the recorded IC50 for CN1CCN(NC(=O)N2c3ccccc3NC(=O)c3cscc32)CC1 [C] , tested on muscarinic receptors (heart) (Rattus norvegicus).
Result: 90
